Origin of the recorded values: ChEMBL document CHEMBL4387722

- TARGET OR SYSTEM: HSP60/HSP10 (Homo sapiens, UniProt P10809)
- Sequence (P10809 whole entry): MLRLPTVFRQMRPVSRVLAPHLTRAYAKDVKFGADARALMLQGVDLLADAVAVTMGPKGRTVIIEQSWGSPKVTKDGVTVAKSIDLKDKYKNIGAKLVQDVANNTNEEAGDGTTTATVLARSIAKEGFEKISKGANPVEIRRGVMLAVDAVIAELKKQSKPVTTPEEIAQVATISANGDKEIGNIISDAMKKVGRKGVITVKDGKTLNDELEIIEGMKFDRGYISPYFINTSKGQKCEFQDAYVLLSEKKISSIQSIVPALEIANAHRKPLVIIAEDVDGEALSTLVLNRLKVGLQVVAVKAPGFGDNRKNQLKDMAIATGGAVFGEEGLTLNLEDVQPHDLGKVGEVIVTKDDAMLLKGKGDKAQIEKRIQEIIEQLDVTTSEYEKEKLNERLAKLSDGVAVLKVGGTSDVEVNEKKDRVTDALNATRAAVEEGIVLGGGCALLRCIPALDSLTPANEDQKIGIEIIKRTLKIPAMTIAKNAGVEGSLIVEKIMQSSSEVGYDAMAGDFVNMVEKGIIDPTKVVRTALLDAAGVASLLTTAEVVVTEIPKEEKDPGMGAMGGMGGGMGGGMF
- Sequence (P61604 whole entry, further chain): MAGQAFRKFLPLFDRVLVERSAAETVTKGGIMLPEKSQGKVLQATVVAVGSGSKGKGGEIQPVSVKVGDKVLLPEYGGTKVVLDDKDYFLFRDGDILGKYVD
pIC50: −log10 of the molar value.
PROPERTY: pIC50

{"COMPOUND STRUCTURE STRING": "CS(=O)(=O)Nc1ccc2oc(-c3ccccc3)nc2c1", "EXPERIMENTAL VALUE": "< 4.00"}
{"COMPOUND STRUCTURE STRING": "O=S(=O)(Nc1ccc2oc(-c3ccccc3)nc2c1)c1ccccc1C(F)(F)F", "EXPERIMENTAL VALUE": "< 4.00"}

# return pIC50 for each item in the list
1. O=S(=O)(Nc1ccc(-c2nc3ccccc3o2)cc1)c1ccccc1Cl
2. COc1cccc(S(=O)(=O)Nc2ccc3oc(-c4ccccc4)nc3c2)c1

## Output
["< 4.00", "< 4.00"]

// for each compound in input: emit pIC50
1. O=S(=O)(Nc1ccc2oc(-c3ccccc3)nc2c1)c1ccccc1Cl
2. C=Cc1ccc(S(=O)(=O)Nc2ccc(-c3nc4ccccc4o3)cc2)cc1
3. Cc1ccc(S(=O)(=O)Nc2ccc3oc(-c4ccccc4)nc3c2)cc1
4. O=S(=O)(Nc1ccc(-c2nc3ccccc3o2)cc1)c1ccccc1
5. CCc1ccc(S(=O)(=O)Nc2ccc3oc(-c4ccccc4)nc3c2)cc1
6. O=S(=O)(Nc1ccc(-c2nc3ccccc3o2)cc1)c1ccccc1O
7. O=S(=O)(Nc1ccc2oc(-c3ccccc3)nc2c1)c1ccc(Cl)cc1

## Output
1: < 4.00; 2: < 4.00; 3: < 4.00; 4: < 4.00; 5: < 4.00; 6: < 4.00; 7: < 4.00

----------
For each entry below, report its pIC50 value.
- TARGET OR SYSTEM: Phosphotyrosine protein phosphatase (Mycobacterium tuberculosis)
- Sequence (A0A045ISB3 whole entry): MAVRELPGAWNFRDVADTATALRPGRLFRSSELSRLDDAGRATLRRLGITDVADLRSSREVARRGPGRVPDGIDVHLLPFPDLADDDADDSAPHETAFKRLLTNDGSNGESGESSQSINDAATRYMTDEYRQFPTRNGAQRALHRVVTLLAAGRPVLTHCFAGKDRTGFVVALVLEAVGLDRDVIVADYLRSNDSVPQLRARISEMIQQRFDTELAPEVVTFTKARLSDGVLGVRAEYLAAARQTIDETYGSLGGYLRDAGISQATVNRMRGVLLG
Give bare numbers, as −log10 of the molar value.

Example results:
{"COMPOUND STRUCTURE STRING": "COc1cccc(S(=O)(=O)Nc2ccc(-c3nc4cc(NS(=O)(=O)c5cccc(OC)c5)ccc4o3)cc2)c1", "TARGET OR SYSTEM": "Phosphotyrosine protein phosphatase (Mycobacterium tuberculosis)", "PROPERTY": "pIC50", "EXPERIMENTAL VALUE": 5.03}
{"COMPOUND STRUCTURE STRING": "O=S(=O)(Nc1ccc2oc(-c3ccccc3)nc2c1)c1ccccc1", "TARGET OR SYSTEM": "Phosphotyrosine protein phosphatase (Mycobacterium tuberculosis)", "PROPERTY": "pIC50", "EXPERIMENTAL VALUE": 4.06}

## Input Which measured pIC50 value corresponds to O=S(=O)(Nc1ccc2oc(-c3ccccc3)nc2c1)c1cccs1 ?
## Output 4.09

----------
- TARGET OR SYSTEM: E. coli GroEL/ES (Escherichia coli)
- Sequence (P0A6F5 whole entry, looked up): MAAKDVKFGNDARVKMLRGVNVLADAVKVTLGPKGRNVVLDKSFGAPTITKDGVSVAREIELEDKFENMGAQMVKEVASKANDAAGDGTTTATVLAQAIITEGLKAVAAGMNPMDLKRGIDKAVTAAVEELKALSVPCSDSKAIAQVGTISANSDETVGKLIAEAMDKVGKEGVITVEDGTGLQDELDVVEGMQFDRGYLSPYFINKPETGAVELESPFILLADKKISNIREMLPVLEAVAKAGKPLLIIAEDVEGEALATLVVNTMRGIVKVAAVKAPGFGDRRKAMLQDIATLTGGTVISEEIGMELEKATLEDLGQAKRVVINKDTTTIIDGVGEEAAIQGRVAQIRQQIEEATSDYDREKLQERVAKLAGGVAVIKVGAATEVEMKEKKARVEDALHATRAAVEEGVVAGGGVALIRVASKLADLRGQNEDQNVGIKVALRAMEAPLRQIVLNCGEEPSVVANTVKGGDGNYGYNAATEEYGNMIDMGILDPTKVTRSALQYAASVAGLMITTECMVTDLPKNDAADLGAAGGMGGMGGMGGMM
- PROTOCOL DETAILS: Inhibition of Escherichia coli GroEL expressed in Escherichia coliDH5alpha/Escherichia coli GroES expressed in Escherichia coli BL21 (DE3) assessed as reduction in GroEL/GroES-mediated denatured pig heart mitochondrial MDH refolding by measuring MDH enzyme activity using sodium mesoxalate as substrate after 20 to 40 mins by spectrometric analysis
pIC50: −log10 of the molar value.
Assign pIC50 to each entry below.

// solved cases for pIC50 follow
{"COMPOUND STRUCTURE STRING": "CS(=O)(=O)Nc1ccc(-c2nc3ccccc3o2)cc1", "pIC50": "< 4.00"}
{"COMPOUND STRUCTURE STRING": "O=S(=O)(Nc1ccc2oc(-c3ccccc3)nc2c1)c1ccccc1F", "pIC50": "< 4.00"}
{"COMPOUND STRUCTURE STRING": "C=Cc1ccc(S(=O)(=O)Nc2ccc3oc(-c4ccccc4)nc3c2)cc1", "pIC50": "< 4.00"}

Dear colleague, could you please provide pIC50 for the molecules listed below?
1. Cc1ccc(S(=O)(=O)Nc2ccc(-c3nc4ccccc4o3)cc2)cc1
2. O=S(=O)(Nc1ccc2oc(-c3ccccc3)nc2c1)c1ccc(Cl)cc1
3. O=S(=O)(Nc1ccc2oc(-c3ccccc3)nc2c1)c1cccs1

## Output
1: < 4.00; 2: < 4.00; 3: < 4.00
